Target: T1, Karyopherin beta2 (Kapβ2), full length, wild type (human, UniProt Q92973-2 1-890)
T1 construct: mature; Expressed as a GST fusion from pGEX-Tev and purified; Also used here for the Kapβ2 added in the GST pull-downs; also called Transportin
T1 sequence (looked up): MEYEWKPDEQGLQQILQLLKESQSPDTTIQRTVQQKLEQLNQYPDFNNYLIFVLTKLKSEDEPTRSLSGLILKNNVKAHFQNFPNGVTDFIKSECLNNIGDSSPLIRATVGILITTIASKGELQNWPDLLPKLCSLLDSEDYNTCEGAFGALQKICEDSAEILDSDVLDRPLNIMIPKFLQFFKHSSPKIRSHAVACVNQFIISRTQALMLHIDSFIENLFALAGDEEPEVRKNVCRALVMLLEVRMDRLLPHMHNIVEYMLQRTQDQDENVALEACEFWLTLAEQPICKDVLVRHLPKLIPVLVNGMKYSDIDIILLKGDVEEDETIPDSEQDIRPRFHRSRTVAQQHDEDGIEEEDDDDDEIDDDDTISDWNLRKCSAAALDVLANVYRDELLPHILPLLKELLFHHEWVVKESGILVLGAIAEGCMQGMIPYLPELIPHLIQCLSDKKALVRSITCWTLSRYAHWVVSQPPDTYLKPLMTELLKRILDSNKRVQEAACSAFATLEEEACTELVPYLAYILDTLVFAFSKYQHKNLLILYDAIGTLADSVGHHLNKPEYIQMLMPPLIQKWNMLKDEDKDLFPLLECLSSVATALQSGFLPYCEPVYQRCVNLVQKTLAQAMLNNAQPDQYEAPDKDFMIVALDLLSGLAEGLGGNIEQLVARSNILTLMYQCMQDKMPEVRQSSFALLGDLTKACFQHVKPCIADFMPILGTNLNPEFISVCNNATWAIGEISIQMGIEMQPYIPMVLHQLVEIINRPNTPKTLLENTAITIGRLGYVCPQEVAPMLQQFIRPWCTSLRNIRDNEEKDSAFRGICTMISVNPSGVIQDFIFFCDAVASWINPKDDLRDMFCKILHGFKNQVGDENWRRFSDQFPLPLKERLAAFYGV
Experiment: ITC; MBP-M9NLS(257-305) titrated into full length Kapβ2
PROPERTY: pKd
Here pKd is given on a logarithmic scale as minus log10 of the concentration in mol/L.

q: Read off the recorded pKd for GGSYNDFGNYNNQSSNFGPMKGGNFGGRSSGPYGGGGQYFAKPRNQGGY (other, human, UniProt P09651-2 257-305, looked up, not shown: large carriers, MBP fusion of the NLS peptide; also called MBP-hnRNP A1-NLS; wildtype hnRNP A1-NLS) [MBP-M9NLS(257-305) wild type]
a: 7.38

Where these numbers come from: patent US20080015137A1
